Listing of pIC50 toward Tyrosine-protein kinase receptor UFO (Homo sapiens, UniProt P30530), each taken from a published source.
pIC50: −log10 of the molar value.
Result Type: pIC50

smiles_entry=Nc1ncc(-c2cnn(C3CCNCC3)c2)cc1-c1nnc(-c2cc(F)ccc2F)o1 tested_system="Tyrosine-protein kinase receptor UFO (Homo sapiens, UniProt P30530)" result_type=pIC50 result="> 6.30"
smiles_entry=C[C@@H](CC(F)(F)F)Nc1ncc2c(OC3CCN(c4ncccn4)CC3)ncc([C@H]3CC[C@H](O)CC3)c2n1 tested_system="Tyrosine-protein kinase receptor UFO (Homo sapiens, UniProt P30530)" result_type=pIC50 result="6.00 to 7.00"
smiles_entry=C[C@@H](CC(F)(F)F)Nc1ncc2c(O[C@H]3C[C@@H](O)C3)ncc([C@H]3CC[C@@](C)(O)CC3)c2n1 tested_system="Tyrosine-protein kinase receptor UFO (Homo sapiens, UniProt P30530)" result_type=pIC50 result="≥ 7.00"
smiles_entry=C[C@@H](CC(F)(F)F)Nc1ncc2c(-c3cncc(C(=O)O)c3)cc([C@H]3CC[C@H](O)CC3)n2n1 tested_system="Tyrosine-protein kinase receptor UFO (Homo sapiens, UniProt P30530)" result_type=pIC50 result="≥ 7.00"
